The origin of these recorded values is patent US20250084155A1.

Biological target: T1, HSP70 (human HSP70; the antigen of the binning, humanization and variant binding assays) (human, UniProt P0DMV8 1-641, limits assumed)
T1 construct: also called hu HSP70
T1 sequence (P0DMV8 whole entry, change not shown): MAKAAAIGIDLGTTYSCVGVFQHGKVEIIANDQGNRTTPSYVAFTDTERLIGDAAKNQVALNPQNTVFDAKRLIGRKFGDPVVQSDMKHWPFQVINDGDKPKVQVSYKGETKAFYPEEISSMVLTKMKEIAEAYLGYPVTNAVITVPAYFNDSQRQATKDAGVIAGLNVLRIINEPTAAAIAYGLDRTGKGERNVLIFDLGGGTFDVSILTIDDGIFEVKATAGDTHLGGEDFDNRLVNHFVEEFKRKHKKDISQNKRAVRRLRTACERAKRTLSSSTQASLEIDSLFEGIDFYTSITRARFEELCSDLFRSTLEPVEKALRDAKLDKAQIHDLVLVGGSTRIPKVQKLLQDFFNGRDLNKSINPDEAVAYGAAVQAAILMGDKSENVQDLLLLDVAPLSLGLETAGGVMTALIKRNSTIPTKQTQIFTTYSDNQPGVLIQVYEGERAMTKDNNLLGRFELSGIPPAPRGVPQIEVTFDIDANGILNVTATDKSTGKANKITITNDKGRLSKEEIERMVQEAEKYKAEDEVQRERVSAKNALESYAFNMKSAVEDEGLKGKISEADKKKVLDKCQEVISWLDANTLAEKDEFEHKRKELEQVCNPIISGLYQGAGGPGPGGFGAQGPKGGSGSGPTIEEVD
Assay: BLI, anti-human Fc capture, antigen dilution series, 1:1 fit
Would you mind telling me the reported koff of each entry?
Form entry: value (s⁻¹) — number only.

Problem: # get_value(readout='koff', item= h77A-1.71 (antibody, V domains shown, captured by anti-human Fc) VH: QIQLVQSGSEVKKPGASVKVSCKASGYTFTNYGMNWVRQAPGQGLEWMGWINTYTGEPTYADDFKGRFTFTTDTSTSTAYMDLRSLRSDDTAVYFCARYDHAMDYWGQGTLVTVSS VL: EIVLTQSPDSLSVSLGERATIKCKSSQSLLNSGTRKNYLAWYQQKAGQSPKLLIYWTSTRESGVPDRFSGSGSGTDFTLTIDSLQTEDVAVYYCKQSYTLYTFGGGTKVEIK )
Solution: 0.000123

Problem: # get_value(readout='koff', item= h77A-1.12 (antibody, V domains shown, captured by anti-human Fc) VH: QIQLVQSGAEVKKPGASVKVSCKASGYTFTNYGMNWVRQAPGQGLEWMGWINTYTGEPTYADDFKGRFTFTTDTSTSTAYMELRSLRSDDTAVYFCARYDHAMDYWGQGTLVTVSS VL: EIVLTQSPDSLAVSLGERATINCKSSQSLFNSGTRKNYLAWYQQKAGQSPKLLIYWTSTRESGVPDRFSGSGSGTDFTLTIDSLQAEDVAVYYCKQSYTLYTFGGGTKVEIK )
Solution: 7.37e-05

Problem: # get_value(readout='koff', item= h77A-1.1 (antibody, V domains shown, captured by anti-human Fc) VH: QIQLVQSGAEVKKPGASVKVSCKASGYTFTKYGMNWVRQAPGQGLEWMGWINTYTGEPTYADDFKGRFTFTTDTSTSTAYMELRSLRSDDTAVYFCARYDHAMDYWGQGTLVTVSS VL: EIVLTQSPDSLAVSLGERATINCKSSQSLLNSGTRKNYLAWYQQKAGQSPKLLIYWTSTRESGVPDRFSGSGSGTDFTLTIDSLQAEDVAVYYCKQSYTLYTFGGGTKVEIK )
Solution: 6.11e-05
